The reported measurements were obtained from patent US12643881B2.

# Measured on: CDK12 complexed with Cyclin K (Homo sapiens)
# Construct: GST (N)
# Sequence (Q9NYV4 whole entry): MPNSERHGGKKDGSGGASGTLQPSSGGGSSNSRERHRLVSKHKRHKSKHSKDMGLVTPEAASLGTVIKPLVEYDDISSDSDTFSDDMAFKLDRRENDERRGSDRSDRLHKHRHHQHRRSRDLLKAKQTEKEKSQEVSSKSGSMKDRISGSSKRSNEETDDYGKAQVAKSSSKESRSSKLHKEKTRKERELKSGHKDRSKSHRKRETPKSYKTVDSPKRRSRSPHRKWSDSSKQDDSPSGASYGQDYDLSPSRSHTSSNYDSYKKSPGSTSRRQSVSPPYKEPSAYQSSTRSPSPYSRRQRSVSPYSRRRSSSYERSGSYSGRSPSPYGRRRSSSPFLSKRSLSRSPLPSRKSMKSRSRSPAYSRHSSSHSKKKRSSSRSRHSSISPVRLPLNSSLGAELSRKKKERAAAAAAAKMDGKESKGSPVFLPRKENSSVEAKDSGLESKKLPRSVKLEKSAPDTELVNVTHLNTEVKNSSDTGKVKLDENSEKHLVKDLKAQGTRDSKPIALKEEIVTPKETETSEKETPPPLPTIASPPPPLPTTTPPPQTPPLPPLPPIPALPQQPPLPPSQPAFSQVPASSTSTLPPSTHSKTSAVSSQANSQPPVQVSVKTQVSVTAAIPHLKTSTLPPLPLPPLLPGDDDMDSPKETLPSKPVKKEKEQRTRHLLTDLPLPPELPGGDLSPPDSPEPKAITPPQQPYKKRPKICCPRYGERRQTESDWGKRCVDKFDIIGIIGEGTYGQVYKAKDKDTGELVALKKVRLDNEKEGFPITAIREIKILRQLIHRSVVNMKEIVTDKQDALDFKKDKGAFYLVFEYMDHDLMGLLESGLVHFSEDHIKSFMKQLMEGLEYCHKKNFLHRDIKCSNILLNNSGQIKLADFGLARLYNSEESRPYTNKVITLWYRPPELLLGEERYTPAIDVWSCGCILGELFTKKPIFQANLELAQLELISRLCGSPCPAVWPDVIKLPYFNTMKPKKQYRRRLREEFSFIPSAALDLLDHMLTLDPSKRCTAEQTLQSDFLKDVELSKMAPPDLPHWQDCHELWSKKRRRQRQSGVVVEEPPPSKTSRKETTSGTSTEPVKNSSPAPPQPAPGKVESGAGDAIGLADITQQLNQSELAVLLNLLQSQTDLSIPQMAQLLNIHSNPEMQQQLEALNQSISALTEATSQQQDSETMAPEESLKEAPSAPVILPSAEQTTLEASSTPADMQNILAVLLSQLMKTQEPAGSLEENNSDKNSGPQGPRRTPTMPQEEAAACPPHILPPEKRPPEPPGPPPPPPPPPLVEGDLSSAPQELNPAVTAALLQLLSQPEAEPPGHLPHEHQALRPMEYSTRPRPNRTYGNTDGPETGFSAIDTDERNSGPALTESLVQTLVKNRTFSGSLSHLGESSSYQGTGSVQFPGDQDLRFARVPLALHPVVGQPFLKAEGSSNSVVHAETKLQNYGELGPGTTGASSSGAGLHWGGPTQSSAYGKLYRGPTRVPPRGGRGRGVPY
# Sequence (O75909 whole entry partner): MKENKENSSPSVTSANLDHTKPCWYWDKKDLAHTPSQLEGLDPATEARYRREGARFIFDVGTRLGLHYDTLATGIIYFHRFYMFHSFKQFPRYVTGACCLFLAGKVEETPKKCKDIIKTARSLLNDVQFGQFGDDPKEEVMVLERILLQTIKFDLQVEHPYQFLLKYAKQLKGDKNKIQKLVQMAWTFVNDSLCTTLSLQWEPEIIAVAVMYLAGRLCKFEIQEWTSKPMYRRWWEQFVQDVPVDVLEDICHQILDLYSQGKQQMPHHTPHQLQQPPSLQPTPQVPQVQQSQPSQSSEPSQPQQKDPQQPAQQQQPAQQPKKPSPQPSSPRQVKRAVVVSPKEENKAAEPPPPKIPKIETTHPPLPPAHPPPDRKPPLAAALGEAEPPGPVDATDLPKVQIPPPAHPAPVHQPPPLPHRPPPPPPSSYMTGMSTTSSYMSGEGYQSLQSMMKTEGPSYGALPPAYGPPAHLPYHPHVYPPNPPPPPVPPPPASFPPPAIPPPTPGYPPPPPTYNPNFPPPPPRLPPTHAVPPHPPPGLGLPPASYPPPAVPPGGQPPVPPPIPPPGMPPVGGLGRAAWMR
# Method notes: CDK Enzymatic Assays (HTRF, LANCE Ultra kinase assay), Example A1
# Format: biochemical
# Measurement parameters: enzyme pre-incubated with compounds for 60 minutes prior to addition of ATP (1 mM final) and Ulight-peptide; reaction 60-90 minutes at room temperature
Measurement label: IC50

CC#CC(=O)Nc1ccc2c(c1)nc([C@H]1CCC[C@@H](Nc3ncc(C#N)c(OC)n3)C1)n2C [Example 54] : 50 to 500 nM
C=CC(=O)Nc1ccc2c(c1)C(=O)N([C@H]1CCC[C@@H](Nc3ccc(C#N)c(C)n3)C1)C2 [Example 15] : > 500 nM
C=CC(=O)Nc1ccc2c(c1)nc([C@H]1CC[C@@H](Nc3ncc(C#N)cn3)C1)n2C [Example 70] : < 50 nM

Please turn your attention to the following entry.
Value of IC50 reported for the compound C=CC(=O)Nc1ccc2oc(N3CCC[C@@H](Nc4ncc(C#N)c(OC)n4)C3)nc2c1 [Example 36] is < 50 nM
